Tested on: 786-0 complex spheroids with HUVEC/MSC, growth % test/control
Assay: Anticancer human tumor 786-0 cell line growth inhibition [AhR];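 also: compound exposure lasted seven days before the read-out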
Conditions: second compound 10 µM; first compound 0.000316 µM; active compounds read low
Source text: Multicellular complex tumor spheroid response to aryl hydrocarbon receptor antagonists in combination with a variety of drugs and investigational agents in selected tumor cell lines […] Compounds. […] If the clinical Cmax for an agent had not been determined, the highest concentration tested was 10 microM (Table 1). […]

compound	viability, T/C, %
Cn1ncnc1C1c2n[nH]c(=O)c3cc(F)cc(c23)NC1c1ccc(F)cc1 (stereo not drawn) + Cc1ccccc1N=Nc1ccc(NC(=O)c2ccnn2C)c(C)c1	98.6
Cn1ncnc1C1c2n[nH]c(=O)c3cc(F)cc(c23)NC1c1ccc(F)cc1 (stereo not drawn) + CC(CO)NC(=O)c1cc(-c2ccc(Cl)cc2)nn(-c2cnn(C)c2)c1=O	114
Cn1ncnc1C1c2n[nH]c(=O)c3cc(F)cc(c23)NC1c1ccc(F)cc1 (stereo not drawn) + Cc1cncc(-c2nc(NCCc3c[nH]c4ccccc34)c3ncn(C(C)C)c3n2)c1	19.2
